inhibition reference
- TARGET_DESC: 3-keto-steroid reductase/17-beta-hydroxysteroid dehydrogenase 7 (Homo sapiens) (UniProt P56937)
- Sequence (P56937 whole entry): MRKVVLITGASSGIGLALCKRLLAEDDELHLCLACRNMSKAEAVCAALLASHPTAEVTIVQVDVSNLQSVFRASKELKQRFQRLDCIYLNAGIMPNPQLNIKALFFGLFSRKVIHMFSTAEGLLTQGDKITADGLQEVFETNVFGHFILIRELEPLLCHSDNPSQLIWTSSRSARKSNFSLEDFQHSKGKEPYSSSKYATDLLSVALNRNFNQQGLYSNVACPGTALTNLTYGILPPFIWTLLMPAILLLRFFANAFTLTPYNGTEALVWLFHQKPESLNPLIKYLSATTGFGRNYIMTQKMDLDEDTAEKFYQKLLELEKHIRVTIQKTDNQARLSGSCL
- PROCEDURE_SUMMARY: Inhibition of 17beta-HSD7 over-expressed in intact HEK293 cells at 1 uM
- Format: cell-based

COMPOUND_STRING | inhibition
CCCCN(C)C(=O)CCCCCC[C@@H]1C[C@@H]2[C@H](CC[C@]3(C)C(=O)CC[C@@H]23)c2ccc(O)cc21 | 7%
C[C@]12CC[C@@H]3c4ccc(O)cc4CC[C@H]3[C@@H]1CCC2=O | 0%
CCCCN(C)C(=O)CCCCCC[C@@H]1C[C@@H]2[C@H](CC[C@]3(C)[C@@H](O)CC[C@@H]23)c2ccc(O)cc21 | 0%
CCCCN(C)C(=O)CCCCCC[C@H]1C[C@@H]2[C@H](CC[C@]3(C)C(=O)CC[C@@H]23)c2ccc(O)cc21 | 5%
CCCCN(C)C(=O)CCCCCC[C@H]1C[C@@H]2[C@H](CC[C@]3(C)[C@@H](O)CC[C@@H]23)c2ccc(O)cc21 | 11%
CCCCN(C)C(=O)CCCCCC[C@@H]1C[C@@H]2[C@H](CC[C@]3(C)[C@@H](O)CC[C@@H]23)c2cc(OC)c(O)cc21 | 0%
CCCCN(C)C(=O)CCCCCS[C@@H]1C[C@@H]2[C@H](CC[C@]3(C)[C@@H](O)CC[C@@H]23)c2ccc(O)cc21 | 9%

Source: ChEMBL document CHEMBL1144570
